# phosphorylation enrichment values compiled below
Molecular target: Fes (UniProt P07332)
Sequence (P07332 whole entry, looked up): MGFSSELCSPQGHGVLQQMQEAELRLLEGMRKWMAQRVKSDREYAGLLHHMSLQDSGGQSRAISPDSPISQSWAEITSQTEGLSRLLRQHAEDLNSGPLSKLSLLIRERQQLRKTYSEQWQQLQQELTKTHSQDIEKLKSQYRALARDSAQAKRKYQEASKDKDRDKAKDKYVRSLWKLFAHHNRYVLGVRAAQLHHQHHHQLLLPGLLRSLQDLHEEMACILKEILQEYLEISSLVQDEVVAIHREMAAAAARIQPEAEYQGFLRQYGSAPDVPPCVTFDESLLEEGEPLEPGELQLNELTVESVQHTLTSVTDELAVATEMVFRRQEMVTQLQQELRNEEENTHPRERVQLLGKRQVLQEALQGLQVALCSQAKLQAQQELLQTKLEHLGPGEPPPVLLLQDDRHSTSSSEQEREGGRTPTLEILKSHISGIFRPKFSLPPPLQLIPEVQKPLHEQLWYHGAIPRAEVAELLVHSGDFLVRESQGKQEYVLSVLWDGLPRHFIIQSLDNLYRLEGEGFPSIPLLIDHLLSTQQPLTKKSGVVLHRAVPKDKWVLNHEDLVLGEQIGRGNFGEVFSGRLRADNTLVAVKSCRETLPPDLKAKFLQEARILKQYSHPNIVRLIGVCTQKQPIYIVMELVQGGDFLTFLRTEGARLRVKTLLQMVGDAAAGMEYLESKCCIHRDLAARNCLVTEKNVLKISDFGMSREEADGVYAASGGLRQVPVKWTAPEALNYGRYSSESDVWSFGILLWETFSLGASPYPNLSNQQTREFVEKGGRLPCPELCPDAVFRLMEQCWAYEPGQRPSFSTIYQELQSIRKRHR
Test: phosphorylation enrichment, bacterial display (enrichment ratio); higher = better substrate or ligand; peptides without Tyr show the background;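 note: 11-residue human phosphosite peptides and single-mutation variants displayed on the E. coli surface, counted by deep sequencing, each peptide's frequency after selection divided by its frequency in the unselected input library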;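 note: frequency after pTyr selection over input frequency; kinase dosed for 20-30% of maximal phosphorylation in three min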
Just the number.

Reference set (6 entries):
SPRDTYSDRIG [CTPS1_Y567_S571I] : 0.605
RPASQYPHQVP [ADAM12_Y895_P893S] : 0.548
FEEDSYSHIMA [FDPS_Y388_YF] : 1.23
VHNLDYYKETT [FGFR3_Y647_K650E] : 0.824
LKLWDYRRGRC [WDR5B_Y239_S240R] : 0.757
YEKFLYFLPAS [DYNC2H1_Y346_H341Y] : 1.31

Please turn your attention to the following entry.
Per the records, this sequence ( VEYAKYGSLRG [RET_Y809] ) has phosphorylation enrichment equal to 0.552

---

# phosphorylation enrichment values compiled below
Target: Hck (UniProt P08631)
Sequence (P08631 whole entry, looked up): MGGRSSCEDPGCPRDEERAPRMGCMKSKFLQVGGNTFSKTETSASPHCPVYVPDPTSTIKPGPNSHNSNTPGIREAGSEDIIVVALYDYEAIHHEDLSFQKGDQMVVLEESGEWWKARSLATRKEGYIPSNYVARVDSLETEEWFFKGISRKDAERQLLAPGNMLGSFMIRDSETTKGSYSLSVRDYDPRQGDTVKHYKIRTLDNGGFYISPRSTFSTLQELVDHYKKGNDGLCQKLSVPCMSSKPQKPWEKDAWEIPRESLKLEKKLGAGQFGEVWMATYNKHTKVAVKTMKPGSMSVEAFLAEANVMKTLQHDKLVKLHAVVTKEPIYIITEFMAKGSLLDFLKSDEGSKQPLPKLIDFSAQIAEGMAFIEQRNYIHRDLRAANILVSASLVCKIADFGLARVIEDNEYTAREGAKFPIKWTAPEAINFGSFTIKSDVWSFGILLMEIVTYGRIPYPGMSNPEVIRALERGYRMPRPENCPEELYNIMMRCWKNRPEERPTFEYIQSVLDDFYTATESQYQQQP
Assay: phosphorylation enrichment, bacterial display (enrichment ratio); higher = better substrate or ligand; peptides without Tyr show the background
Just the number.

Reference set (10 entries):
QLAPQYTYTQG [FLNA_Y1761_A1764T] : 0.533
NRLNDYIFSFD [RARS1_Y516] : 0.469
PPLMLYNPTTY [EGFR_Y270] : 1.01
FPAVGYHKPHI [IDS_Y225_L221P] : 0.394
RDSQIYAVDYE [MRPS34_Y34_L33I] : 4.23
RLCQDYDIIGP [ANK1_Y1073_T1075I] : 2.46
FEEDSYVERSQ [RET_Y905_K907E_YF] : 0.457
RVKTPYSLKRW [BMPR2_Y979] : 0.745
AAVLNYKAGRD [GRIN2A_Y737] : 0.322
KKRSVYLKVLF [CC2D2A_Y683] : 0.401

Per the records, this sequence ( KRLKDYLMVLQ [USP25_Y425_T427M] ) has phosphorylation enrichment equal to 0.515

Per the records, this sequence ( RGDSAYHSQRH [ERBB3_Y1132] ) has phosphorylation enrichment equal to 0.305

Per the records, this sequence ( VLAAQYTTVGR [SGSH_Y240_D235V] ) has phosphorylation enrichment equal to 0.543

Per the records, this sequence ( PVFIKYLPEWT [PSEN1_Y240_L235P] ) has phosphorylation enrichment equal to 0.519

---

Target: EPHB2 (UniProt P29323)
Sequence (P29323 whole entry, looked up): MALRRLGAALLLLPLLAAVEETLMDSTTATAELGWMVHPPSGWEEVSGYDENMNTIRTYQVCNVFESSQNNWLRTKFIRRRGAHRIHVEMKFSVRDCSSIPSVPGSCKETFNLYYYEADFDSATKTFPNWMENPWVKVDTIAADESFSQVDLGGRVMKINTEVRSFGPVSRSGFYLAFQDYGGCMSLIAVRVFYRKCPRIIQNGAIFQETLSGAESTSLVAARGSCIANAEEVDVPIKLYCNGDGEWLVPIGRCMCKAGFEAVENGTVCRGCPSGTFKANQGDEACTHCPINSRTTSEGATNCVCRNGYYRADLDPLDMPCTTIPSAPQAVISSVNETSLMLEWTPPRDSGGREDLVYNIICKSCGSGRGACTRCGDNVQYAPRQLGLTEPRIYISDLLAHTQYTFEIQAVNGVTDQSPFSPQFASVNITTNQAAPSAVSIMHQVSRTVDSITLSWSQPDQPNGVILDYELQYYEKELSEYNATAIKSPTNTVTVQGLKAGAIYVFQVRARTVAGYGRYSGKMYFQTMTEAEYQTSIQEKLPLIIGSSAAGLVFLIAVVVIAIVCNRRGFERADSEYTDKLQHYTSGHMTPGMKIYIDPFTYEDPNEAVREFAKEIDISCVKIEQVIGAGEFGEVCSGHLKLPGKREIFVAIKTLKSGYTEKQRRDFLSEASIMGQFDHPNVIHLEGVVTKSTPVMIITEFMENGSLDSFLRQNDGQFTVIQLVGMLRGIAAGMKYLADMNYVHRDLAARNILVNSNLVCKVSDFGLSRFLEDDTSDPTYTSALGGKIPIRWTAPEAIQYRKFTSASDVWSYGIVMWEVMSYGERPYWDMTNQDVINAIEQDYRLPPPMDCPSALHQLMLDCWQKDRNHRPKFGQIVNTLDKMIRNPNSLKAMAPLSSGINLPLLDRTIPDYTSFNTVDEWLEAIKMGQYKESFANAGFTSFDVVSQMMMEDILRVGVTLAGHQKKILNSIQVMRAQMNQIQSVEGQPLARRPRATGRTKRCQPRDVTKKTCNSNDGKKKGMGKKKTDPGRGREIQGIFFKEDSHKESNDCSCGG
Assay: phosphorylation enrichment, bacterial display (enrichment ratio); higher = better substrate or ligand; peptides without Tyr show the background
Classify as follows. Reported phosphorylation enrichment greater than or equal to 0.5: Yes. Reported phosphorylation enrichment below: No.

Answered examples (5):
ETDPRYFDEEF [AKT1_Y437_T435P] : Yes
KDQGGYAMHQD [MAPT_Y29_T30A] : No
GDYLSYREFHS [ERBIN_Y1107] : Yes
SLTRLCVGENA [NLRP3_Y861_Y861C] : Yes
ADEEYYEIIAA [FEStide_no-pY_2014] : Yes

Asked: Check the entry VLAAQYTTVGR [SGSH_Y240_D235V] : does phosphorylation enrichment equal or exceed 0.5?
Given back: No

Asked: Check the entry KGELRYMHSRV [ABCD1_Y281] : does phosphorylation enrichment equal or exceed 0.5?
Given back: No

Asked: Check the entry YQEPVYSVAFS [TBL1X_Y509_H504Y] : does phosphorylation enrichment equal or exceed 0.5?
Given back: Yes

Asked: Check the entry MAFDRYVAICS [OR8D4_Y123_C120Y_YF] : does phosphorylation enrichment equal or exceed 0.5?
Given back: Yes
